Target: T1, Antibody 178-08_His 501.V2 (27079) (SARS-CoV-2, UniProt P0DTC2 14-685)
T1 construct: domain: S1; also called TB178-8
Assay: Carterra SPR
Recorded pKd for the following binders
Just so you know, pKd here is -log10 of the concentration in molar units; reply with that number alone.

1) 7-26 (VHH) VHH: EVQLVESGGGLVQPGGSLRLSCAASGSTFSINAMGWFRQAPGKEREFVAGITSSGGYTNYADSVKGRFTISADNSKNTAYLQMNSLKPEDTAVYYCAADGVPEYSDYASGPVWGQGTLVTVSS; 7.13

Which pKd is listed for 3-24 (VHH, not shown: a dimerising Fc or GST) VHH: EVQLVESGGGLVQPGGSLRLSCAASGINFSRYGMGWFRQAPGKEREFVASITYLGRTNYADSVKGRFTISADNSKNTAYLQMNSLKPEDTAVYYCALRVRPYGQYDWGQGTLVTVSS ?
6.23

Data provenance: patent US20230265217A1
